The reported measurements were obtained from patent US20200399712A1.

tested on: HPV-16; assay: qPCR sensitivity against HPV-HNSCC tumor samples diluted among 10 ng normal human DNA; conditions: Sample # 3
Threshold of tumor cell numbers for HPV-16 detection overview
// return the numeric value with its unit appended

Given the entry E6: previously designed (historical) HPV-16 E6 primers and Taqman probe, SEQ ID NO: 7-9, positive control (nucleic acid, Taqman probe, labels not given here) DNA 1: TCAGGACCCACAGGAGCG DNA 2: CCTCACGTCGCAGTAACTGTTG DNA 3: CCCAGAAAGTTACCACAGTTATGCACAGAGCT , report its measured Threshold of tumor cell numbers for HPV-16 detection.
6.0 tumor cells

BR E1-6: HPV-16 E1 region primer/probe set, SEQ ID NO: 43-45 (nucleic acid, chemistry not given here) DNA 1: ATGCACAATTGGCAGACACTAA DNA 2: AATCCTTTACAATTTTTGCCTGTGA DNA 3: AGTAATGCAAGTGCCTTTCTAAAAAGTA ?
30.0 tumor cells

Others:
Given the entry BR E1-5: HPV-16 E1 region primer/probe set, SEQ ID NO: 40-42 (same as SEQ ID NO: 1-3) (nucleic acid, chemistry not given here) DNA 1: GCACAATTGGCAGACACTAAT DNA 2: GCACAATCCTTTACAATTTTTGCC DNA 3: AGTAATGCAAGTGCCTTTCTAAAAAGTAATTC , report its measured Threshold of tumor cell numbers for HPV-16 detection.
30.0 tumor cells

BR E1-4: HPV-16 E1 region primer/probe set, SEQ ID NO: 37-39 (nucleic acid, chemistry not given here) DNA 1: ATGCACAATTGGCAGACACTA DNA 2: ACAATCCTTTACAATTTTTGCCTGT DNA 3: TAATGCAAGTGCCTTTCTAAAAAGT ?
1.2 tumor cells
